# collection of IC50 values tested on steroid 5α-reductase enzyme (Rattus norvegicus (Rat), UniProt P24008)
# Sequence (P24008 whole entry): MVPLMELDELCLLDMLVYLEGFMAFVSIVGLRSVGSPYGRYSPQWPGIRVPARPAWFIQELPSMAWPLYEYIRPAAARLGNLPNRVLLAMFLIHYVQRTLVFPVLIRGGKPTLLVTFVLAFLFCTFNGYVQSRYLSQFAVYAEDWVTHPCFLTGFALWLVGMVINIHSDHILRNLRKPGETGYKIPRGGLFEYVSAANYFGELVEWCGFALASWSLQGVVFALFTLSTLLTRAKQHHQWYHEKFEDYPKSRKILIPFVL
The answer is to be given in µM; state only the numeric part.

[
  {
    "molecule": "CC(C)(C)NC(=O)[C@H]1CC[C@H]2[C@@H]3CC[C@H]4NC(=O)C=C[C@]4(C)[C@H]3CC[C@]12C [Finasteride]",
    "unit.label": "µM",
    "IC50": 0.025
  }
]

Attention now turns to another entry.
Query :: # value lookup — system steroid 5α-reductase enzyme (Rattus norvegicus (Rat), UniProt P24008), readout IC50, item CCCCC/C=C\C/C=C\C/C=C\CCCCC(=O)O [γ-Linolenic acid, reference compound]
Result :: 14
